Each recorded value in this set is attributed to patent US20150202179A1.

test system: serotonin (5HT) levels; test: Serotonin (5HT) determination in brain tissue by HPLC with electrochemical detection; assay type: in vivo, mice; details: Hypothalamus; ng/g wet tissue +/− SEM
Label T when 5HT is at or above 800 ng/g; otherwise label F.

• CCCCCCCC/C=C/CCCCCCCC(=O)N[C@H](CO)C(C)C [Compound 7, Elaidoyl-L-Valinol amide] = T
• CCCCCCCC/C=C\CCCCCCCCOC(=O)N[C@@H](CO)C(C)C [Compound 13, Oleyloxycarbonyl-D-Valinol amide] = T
• CCCCCCCC/C=C\CCCCCCCC(=O)N[C@H](CO)C(C)C [Compound 1, oleoyl-L-valinol amide] = T
• CCCCCCCC/C=C\CCCCCCCC(=O)N[C@H](CO)CC(C)C [Compound 5, Oleoyl-L-Leucinol amide] = F
